# tested-target: Polyunsaturated fatty acid 5-lipoxygenase (Homo sapiens, UniProt P09917)
# Sequence (P09917 whole entry): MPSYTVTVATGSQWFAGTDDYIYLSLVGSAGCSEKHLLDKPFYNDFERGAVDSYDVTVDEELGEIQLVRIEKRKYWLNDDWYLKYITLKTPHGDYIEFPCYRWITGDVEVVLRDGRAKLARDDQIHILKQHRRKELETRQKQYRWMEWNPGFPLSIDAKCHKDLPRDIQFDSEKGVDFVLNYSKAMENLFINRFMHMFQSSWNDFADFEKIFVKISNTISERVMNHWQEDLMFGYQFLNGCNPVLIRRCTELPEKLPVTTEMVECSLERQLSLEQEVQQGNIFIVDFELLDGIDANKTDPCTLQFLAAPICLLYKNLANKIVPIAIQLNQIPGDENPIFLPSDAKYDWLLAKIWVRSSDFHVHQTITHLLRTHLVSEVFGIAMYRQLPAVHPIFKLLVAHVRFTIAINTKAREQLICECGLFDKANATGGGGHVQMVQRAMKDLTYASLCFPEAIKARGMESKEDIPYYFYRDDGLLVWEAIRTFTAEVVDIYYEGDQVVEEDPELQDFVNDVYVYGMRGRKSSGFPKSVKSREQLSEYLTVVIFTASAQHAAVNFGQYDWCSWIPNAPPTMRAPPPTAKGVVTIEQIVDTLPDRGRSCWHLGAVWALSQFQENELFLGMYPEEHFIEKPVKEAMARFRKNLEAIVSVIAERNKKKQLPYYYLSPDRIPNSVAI
# method-notes: Potency to inhibit oxidation of arachidonic acid by recombinant human 5-lipoxygenase
pIC50: −log10 of the molar value.
observable: pIC50

Worked cases, pIC50 given:
- compound: "CC(O)c1cc(-c2ccccc2)c2ccc(OCc3cccc(C4(O)CCOCC4)c3)cc2c1 (stereo unspecified)"
  tested-target: "Polyunsaturated fatty acid 5-lipoxygenase (Homo sapiens, UniProt P09917)"
  pIC50: 6.28
- compound: "CC1OC(=O)c2cc3cc(OCc4cccc(C5(O)CCOCC5)c4)ccc3c(-c3ccccc3)c21 (stereo unspecified)"
  tested-target: "Polyunsaturated fatty acid 5-lipoxygenase (Homo sapiens, UniProt P09917)"
  pIC50: 5.89
- compound: "OC1(c2cccc(COc3ccc4c(-c5ccoc5)cc(Cc5nccs5)cc4c3)c2)CCOCC1"
  tested-target: "Polyunsaturated fatty acid 5-lipoxygenase (Homo sapiens, UniProt P09917)"
  pIC50: 6.85
- compound: "COc1cccc(-c2c3c(cc4cc(OCc5cccc(C6(O)CCOCC6)c5)ccc24)C(=O)OC3)c1"
  tested-target: "Polyunsaturated fatty acid 5-lipoxygenase (Homo sapiens, UniProt P09917)"
  pIC50: 7.10
- compound: "O=C1OCc2c1cc1cc(OCc3cccc(C4(O)CCOCC4)c3)ccc1c2-c1ccoc1"
  tested-target: "Polyunsaturated fatty acid 5-lipoxygenase (Homo sapiens, UniProt P09917)"
  pIC50: 7.59

a = O=C1OCc2c1cc1cc(OCc3cccc(C4(O)CCOCC4)c3)ccc1c2-c1ccccc1Cl
b = O=C1OCc2c1cc1cc(OCc3cccc(C4(O)CCOCC4)c3)ccc1c2-c1ccc(Cl)cc1
c = OC1(c2cccc(COc3ccc4c(-c5ccoc5)cc(C5=NCCO5)cc4c3)c2)CCOCC1
d = N#Cc1cc(-c2ccoc2)c2ccc(OCc3cccc(C4(O)CCOCC4)c3)cc2c1
e = N#Cc1cc(-c2ccccc2)c2ccc(OCc3cccc(C4(O)CCOCC4)c3)cc2c1
Rank ascending by pIC50. Order the labels as requested and give them as your answer. b, a, e, c, d

A = COC1(c2cc(F)cc(OCc3ccc4c(ccc(=O)n4C)c3)c2)CCOCC1 [ZD-2138]
B = COC(=O)c1cc(-c2ccccc2)c2ccc(OCc3cccc(C4(O)CCOCC4)c3)cc2c1
C = CC(=O)c1cc(-c2ccccc2)c2ccc(OCc3cccc(C4(O)CCOCC4)c3)cc2c1
D = COC(C)c1cc(-c2ccccc2)c2ccc(OCc3cccc(C4(O)CCOCC4)c3)cc2c1 (stereo unspecified)
E = CCc1cc(-c2ccccc2)c2ccc(OCc3cccc(C4(O)CCOCC4)c3)cc2c1
Rank ascending by pIC50. Order the labels as requested and give them as your answer. D, E, A, C, B
(D: 5.92, E: 6.12, A: 6.48, C: 6.89, B: 7.15)

A = OCc1cc(-c2ccccc2)c2ccc(OCc3cccc(C4(O)CCOCC4)c3)cc2c1
B = O=C(c1cc(-c2ccoc2)c2ccc(OCc3cccc(C4(O)CCOCC4)c3)cc2c1)c1nccs1
# returns the entry with the larger pIC50; inputs A and B # respond with the chosen item's label B

I = O=C1OCc2c1cc1cc(OCc3cccc(C4(O)CC5COC(C4)O5)c3)ccc1c2-c1ccccc1 (stereo unspecified)
II = O=C(c1cccnc1)c1cc(-c2ccoc2)c2ccc(OCc3cccc(C4(O)CCOCC4)c3)cc2c1
III = OC1(c2cccc(COc3ccc4c(-c5ccoc5)cc(C5=NCCS5)cc4c3)c2)CCOCC1
Rank ascending by pIC50. Order the labels as requested and give them as your answer. I, II, III
(I: 6.62, II: 6.92, III: 7.30)

----------
# Species on record: Homo sapiens
# method-notes: Compound was tested for the inhibition of LTB4 production in human whole blood (HWB)
# Assay type: functional
# condition-set: Homo sapiens, Blood
observable: IC50

Worked cases, IC50 given:
- compound: "CCc1cc(-c2ccccc2)c2ccc(OCc3cccc(C4(O)CCOCC4)c3)cc2c1"
  IC50: "> 1 µM"
- compound: "COC(C)c1cc(-c2ccccc2)c2ccc(OCc3cccc(C4(O)CCOCC4)c3)cc2c1 (stereo not given)"
  IC50: "> 1 µM"
- compound: "CC1OC(=O)c2cc3cc(OCc4cccc(C5(O)CCOCC5)c4)ccc3c(-c3ccccc3)c21 (stereo not given)"
  IC50: "> 3 µM"

Field IC50 (entry CC1(C)OC(=O)c2cc3cc(OCc4cccc(C5(O)CCOCC5)c4)ccc3c(-c3ccccc3)c21 ) reads > 3 µM

Field IC50 (entry Cn1nnnc1-c1cc(-c2ccccc2)c2ccc(OCc3cccc(C4(O)CCOCC4)c3)cc2c1 ) reads > 10 µM

----------
# tested-target: Polyunsaturated fatty acid 5-lipoxygenase (Homo sapiens, UniProt P09917)
# method-notes: Potency to inhibit oxidation of arachidonic acid by recombinant human 5-lipoxygenase
observable: IC50 (nM)

Worked cases, IC50 given:
- compound: "O=C1OCc2c1cc1cc(OCc3cccc(C4(O)CCOC(O)C4)c3)ccc1c2-c1ccccc1 (stereo unspecified)"
  IC50 / nM: 810
- compound: "O=C1OCc2c1cc1cc(OCc3cccc(C4(O)CC5C=CC(C4)O5)c3)ccc1c2-c1ccccc1 (stereo unspecified)"
  IC50 / nM: 400
- compound: "O=C1OCc2c1cc1cc(OCc3cccc(C4(O)CCOCC4)c3)ccc1c2-c1ccc(F)cc1"
  IC50 / nM: 140
- compound: "Cn1nnnc1-c1cc(-c2ccccc2)c2ccc(OCc3cccc(C4(O)CCOCC4)c3)cc2c1"
  IC50 / nM: 3000

A = OC1(c2cccc(COc3ccc4c(-c5ccccc5)cc(Cn5ccnc5)cc4c3)c2)CCOCC1
B = COc1ccc(-c2c3c(cc4cc(OCc5cccc(C6(O)CCOCC6)c5)ccc24)C(=O)OC3)cc1
# returns the entry with the larger IC50; inputs A and B # respond with the chosen item's label B

----------
Each record here notes measured pIC50.
# tested-target: Polyunsaturated fatty acid 5-lipoxygenase (Homo sapiens, UniProt P09917)
# method-notes: Potency to inhibit oxidation of arachidonic acid by recombinant human 5-lipoxygenase
pIC50: −log10 of the molar value.

- compound: "CC1(C)OC(=O)c2cc3cc(OCc4cccc(C5(O)CCOCC5)c4)ccc3c(-c3ccccc3)c21"
  pIC50: "< 5.22"
- compound: "COC(=O)c1cc(Cc2ccccc2)c2ccc(OCc3cccc(C4(O)CCOCC4)c3)cc2c1"
  pIC50: "< 5.22"
- compound: "COCc1cc(-c2ccccc2)c2ccc(OCc3cccc(C4(O)CCOCC4)c3)cc2c1"
  pIC50: 6.80

Field pIC50 (entry OC1(c2cccc(COc3ccc4c(-c5ccccc5)cc(-c5nn[nH]n5)cc4c3)c2)CCOCC1 ) reads < 5.22

Field pIC50 (entry O=C1OC(O)c2c1cc1cc(OCc3cccc(C4(O)CCOCC4)c3)ccc1c2-c1ccccc1 (stereo unspecified) ) reads < 5.22

Field pIC50 (entry OC1(c2cccc(COc3ccc4c(-c5ccoc5)cc(-c5nc6ccccc6s5)cc4c3)c2)CCOCC1 ) reads < 5.22
